Kindly supply the reported FACS MFI values for the records listed here.
Target: T1, mouse CD276 protein (mouse, UniProt Q8VE98 29-316)
T1 construct: whole, on cells; also called mCD276; CHO-S-mCD276
T1 sequence (looked up): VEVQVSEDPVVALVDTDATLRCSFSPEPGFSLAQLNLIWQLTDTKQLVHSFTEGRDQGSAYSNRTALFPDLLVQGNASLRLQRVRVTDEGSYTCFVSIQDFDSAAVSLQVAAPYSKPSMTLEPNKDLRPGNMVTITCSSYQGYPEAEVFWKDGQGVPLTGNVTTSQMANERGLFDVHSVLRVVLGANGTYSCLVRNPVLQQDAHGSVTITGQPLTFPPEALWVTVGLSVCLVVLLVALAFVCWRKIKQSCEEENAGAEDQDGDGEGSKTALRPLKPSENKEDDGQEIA
Assay: FACS on CHO-S-mCD276 cells
Just the number, please, no unit attached.

What the record says about 8-C3-E3-F3 (antibody, V domains shown, mouse monoclonal antibody (hybridoma)) VH: EVQLVESGGGLVQPGGSLKLSCAASGFTFSNYGLSWVRLTPDKRLEVVATIGSYGGNTYYPDSVKGRFTISRDNAKNTLYLQMSSLKSEDTAIYYCARDIYYGNSEAWFAYWGQGTLVTVSA VL: DIVMTQAAFSNPVTLGTSASISCRSSKSLLHSNGITYLYWYLQKPGQSPQLLIYQMSNLASGVPDRFSSSGSETDFTLRISRVEAEDVGVYYCAQNLELPWTFGGGTKLEIK : FACS MFI is 1320

What the record says about 21-B3-B1-H5 (antibody, V domains shown, mouse monoclonal antibody (hybridoma)) VH: QIQLVQSGPELKKPGETVKISCKASGYIFRNYGMNWVKQAPGKGLKWMGWINSYTGKPTYVDDFKGRFAFSLETSASTAYLQINNLKNEDMATYFCARDDGYWYTMDYWGQGTSVTVSS VL: DVVMTQTPLSLPVSLGDQASISCRSSQSLVHSNGHTYLHWYLQKPGQSPKLLIYKVSNRFSGVPDRFSGSGSGTDFTLKISRVEAEDLGVYFCSQSTHVPWTFGGGTKLEIK : FACS MFI is 1340

What the record says about 6-D8-E7-A11 (antibody, V domains shown, mouse monoclonal antibody (hybridoma)) VH: QVHLQQPGAELVKPGASVKLSCKASGYTFTNYWMHWVKRRPGQGLEWIGMIHPNSGTTSFNEKFKSKATLTVDKSSSTAYMQLSSLTSEDSAVYYCAGYYGSSFSWFTYWGQGTLVTVSA VL: QAVVTQESALTTSPGGTVILTCRSSTGAVTTSNFANWVQEKPDHLFTGLIGGTSNRAPGVPVRFSGSLIGDKAALTITGAQTEDDAMYFCALWYSTHYVFGGGTKVTVL : FACS MFI is 92600

What the record says about 13-A8-C4-G1 (antibody, V domains shown, mouse monoclonal antibody (hybridoma)) VH: QVQLQQPGAELVKPGASMKLSCKASGYIFTSNWMHWVKQRPGQGLEWIGMIHPNSGTTSYNEKFKNKAKLTVDKSSSTAYVQLSSLTSEDSAVYYCAGPTTTRRFYPMDYWGQGTSVTVSS VL: QAVVTQESALTTSPGETVTLTCRSSTGAVTTSNYANWVQEKPDHLFTGLIGGTNNRAPGVPARFSGSLIGDKAALTITGAQTEDEAIYFCALWYSNHFIFGSGTKVTVL : FACS MFI is 6200

What the record says about 27-E7-D8-C7 (antibody, V domains shown, mouse monoclonal antibody (hybridoma)) VH: EVQLQESGPELVRPGVSVKISCKGSGYTFTDYAMHWVKQSHAKSLEWIGVINTYSDNTNYNRKFKGKATMTVDKSSSTAYMELARLTSEDSAIYYCARGLLLRSQLGVYFDYWGQGTTLTVSS VL: QIVLSQSPAILSASPGEKVTMTCRASSSVSYMHWYQQKPGSSPKPWIYATSNLASGVPARFSGSGSGTSYSLTISRVEAEDAATYYCQQWSSNPWTFGGGTKLEIK : FACS MFI is 1590

What the record says about 3-F2-E7-F9 (antibody, V domains shown, mouse monoclonal antibody (hybridoma)) VH: QVQLQQSGPELVRPGVSVKISCKGSGYTFTDYTMHWVKESHAKSLEWIGVISTYYGNTNYNQKFKGKATLTVDKSSSTAYMELAGLTSEDSAIYYCARASYGSGYGPYYWYFDVWGAGTTVTVSS VL: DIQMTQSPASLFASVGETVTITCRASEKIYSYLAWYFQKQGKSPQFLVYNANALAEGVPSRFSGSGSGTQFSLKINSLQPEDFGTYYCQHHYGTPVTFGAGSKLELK : FACS MFI is 1140

What the record says about 15-C8-B5-G7 (antibody, V domains shown, mouse monoclonal antibody (hybridoma)) VH: QVQLQQPGAELVKPGASVKLSCKASDYTFTSHWMHWVKQRPGQGLEWIGMIHPNSGTTHYNENFKNKATLTVDNSSSTAYMQLSSLTSEDSAVYYCAWGSSNSYFYAMAYWGQGTSVTVSS VL: QAVVTQESALTTSPGETVTLTCRSSTGAVTTSNYANWVQEKPAHLFTGLIGGTNNRAPGVPARFSGSLIGDKAALTITGAQTEDEAIYFCALWFSNHLVFGGGTKLTVL : FACS MFI is 5730

What the record says about 28-G2-E6-B10 (antibody, V domains shown, mouse monoclonal antibody (hybridoma)) VH: QVQLQQPGAELVKPGASVKLSCKASGYTFTSYWMHWVKQRPGQGLEWIGMIHPNSDTTDYNEKFKTKATLTVDKSSSTAYMQLSSLTSEDSAVFYCARGGLGPHYFVYWGQGTTLTVSS VL: QAVVTQESALTTSPGGTVILTCRSSTGAVTTSNYASWVQEKPDHLFTGLIGGTSNRAPGVPVRFSGSLIGDKAALTITGAQTEDDAMYFCALWYSPHYVFGGGTKVTVL : FACS MFI is 2080

What the record says about 4-D5-B9-B11 (antibody, V domains shown, mouse monoclonal antibody (hybridoma)) VH: EIGGLVKPGGSLKFSCAASGFTFSSYAMSWVRQTPEKRLEWVATISGGGIYYPDSVKGRFTISRDNAKNTLYLQMSSLRSEDTAMYYCARQGSKGWDAMDYWGQGTSVTVSS VL: QIVLTQSPAIMSASPGEKVTMTCRASSSVSFMHWYQQKSGTSPKRWIYETSKLASGVPDRFSGSGSGTSYSLTISSMEAEDAATYYCQQWSSNPLTFGAGTKLELK : FACS MFI is 2100

What the record says about 25-D3-G4-C6 (antibody, V domains shown, mouse monoclonal antibody (hybridoma)) VH: EIQLQQTGPELVKPGASVKISCKASGYSFTDYIILWVKQSHGMSLEWIGNINPYYNSTYYNLKFKGKATLTVDKSSSTAYMQLDSLTSEDSAVYYCARDSFDWYFGVWGAGTTVTVSS VL: DVVMTQTPLSLPVSLGDQASISCRSSQSLVHSNGNTYLHWYLQKPGQSPKLLIYKVSNRFSGVPDRFSGSGSGTDFTLKISRVETEDLGIYFCSQSTHVPPLTFGAGTKLELK : FACS MFI is 1370
